EXPERIMENTAL SETUP: in n-butanol, 318.15 K
MEASURED METRIC: solubility (mole fraction)
The answer should be written as a number, with no unit following it.

Prompt: Provide solubility (mole fraction) value for the following compound: Cc1coc2c1C(=O)C(=O)c1c-2ccc2c(C)cccc12
Completion: 0.00154

* * *

EXPERIMENTAL SETUP: in n-butanol, 293.15 K
MEASURED METRIC: solubility (mole fraction)
The answer should be written as a number, with no unit following it.

Prompt: Provide solubility (mole fraction) value for the following compound: Cc1coc2c1C(=O)C(=O)c1c-2ccc2c(C)cccc12
Completion: 0.000793

* * *

EXPERIMENTAL SETUP: in DMF, 288.15 K
MEASURED METRIC: solubility (mole fraction)

Prompt: Provide solubility (mole fraction) value for the following compound: Cc1coc2c1C(=O)C(=O)c1c-2ccc2c(C)cccc12
Completion: 0.00125

* * *

EXPERIMENTAL SETUP: in methanol, 298.15 K
MEASURED METRIC: solubility (mole fraction)
The answer should be written as a number, with no unit following it.

Prompt: Provide solubility (mole fraction) value for the following compound: Cc1coc2c1C(=O)C(=O)c1c-2ccc2c(C)cccc12
Completion: 8.61e-05

* * *

EXPERIMENTAL SETUP: in water, 303.15 K
MEASURED METRIC: solubility (mole fraction)

Prompt: Provide solubility (mole fraction) value for the following compound: Cc1coc2c1C(=O)C(=O)c1c-2ccc2c(C)cccc12
Completion: 8.25e-08

* * *

EXPERIMENTAL SETUP: in water, 278.15 K
MEASURED METRIC: solubility (mole fraction)
The answer should be written as a number, with no unit following it.

Prompt: Provide solubility (mole fraction) value for the following molecule: Cc1coc2c1C(=O)C(=O)c1c-2ccc2c(C)cccc12
Completion: 5.28e-08

* * *

EXPERIMENTAL SETUP: in acetone, 288.15 K
MEASURED METRIC: solubility (mole fraction)

Prompt: Provide solubility (mole fraction) value for the following compound: Cc1coc2c1C(=O)C(=O)c1c-2ccc2c(C)cccc12
Completion: 0.0014

* * *

EXPERIMENTAL SETUP: in acetone, 323.15 K
MEASURED METRIC: solubility (mole fraction)

Prompt: Provide solubility (mole fraction) value for the following compound: Cc1coc2c1C(=O)C(=O)c1c-2ccc2c(C)cccc12
Completion: 0.0036

* * *

EXPERIMENTAL SETUP: in ethylene glycol, 278.15 K
MEASURED METRIC: solubility (mole fraction)

Prompt: Provide solubility (mole fraction) value for the following compound: Cc1coc2c1C(=O)C(=O)c1c-2ccc2c(C)cccc12
Completion: 8.39e-05

* * *

EXPERIMENTAL SETUP: in n-propanol, 323.15 K
MEASURED METRIC: solubility (mole fraction)
The answer should be written as a number, with no unit following it.

Prompt: Provide solubility (mole fraction) value for the following molecule: Cc1coc2c1C(=O)C(=O)c1c-2ccc2c(C)cccc12
Completion: 0.00151

* * *

EXPERIMENTAL SETUP: in n-propanol, 318.15 K
MEASURED METRIC: solubility (mole fraction)
The answer should be written as a number, with no unit following it.

Prompt: Provide solubility (mole fraction) value for the following compound: Cc1coc2c1C(=O)C(=O)c1c-2ccc2c(C)cccc12
Completion: 0.0013

* * *

EXPERIMENTAL SETUP: in ethylene glycol, 323.15 K
MEASURED METRIC: solubility (mole fraction)
The answer should be written as a number, with no unit following it.

Prompt: Provide solubility (mole fraction) value for the following compound: Cc1coc2c1C(=O)C(=O)c1c-2ccc2c(C)cccc12
Completion: 0.000317

* * *

EXPERIMENTAL SETUP: in water, 288.15 K
MEASURED METRIC: solubility (mole fraction)
The answer should be written as a number, with no unit following it.

Prompt: Provide solubility (mole fraction) value for the following compound: Cc1coc2c1C(=O)C(=O)c1c-2ccc2c(C)cccc12
Completion: 6.23e-08

* * *

EXPERIMENTAL SETUP: in isopropanol, 318.15 K
MEASURED METRIC: solubility (mole fraction)

Prompt: Provide solubility (mole fraction) value for the following molecule: Cc1coc2c1C(=O)C(=O)c1c-2ccc2c(C)cccc12
Completion: 0.00101

* * *

EXPERIMENTAL SETUP: in n-butanol, 278.15 K
MEASURED METRIC: solubility (mole fraction)
The answer should be written as a number, with no unit following it.

Prompt: Provide solubility (mole fraction) value for the following compound: Cc1coc2c1C(=O)C(=O)c1c-2ccc2c(C)cccc12
Completion: 0.000574

* * *

EXPERIMENTAL SETUP: in ethylene glycol, 288.15 K
MEASURED METRIC: solubility (mole fraction)
The answer should be written as a number, with no unit following it.

Prompt: Provide solubility (mole fraction) value for the following compound: Cc1coc2c1C(=O)C(=O)c1c-2ccc2c(C)cccc12
Completion: 0.000114

* * *

EXPERIMENTAL SETUP: in DMF, 323.15 K
MEASURED METRIC: solubility (mole fraction)
The answer should be written as a number, with no unit following it.

Prompt: Provide solubility (mole fraction) value for the following molecule: Cc1coc2c1C(=O)C(=O)c1c-2ccc2c(C)cccc12
Completion: 0.00335

* * *

EXPERIMENTAL SETUP: in n-propanol, 298.15 K
MEASURED METRIC: solubility (mole fraction)
The answer should be written as a number, with no unit following it.

Prompt: Provide solubility (mole fraction) value for the following molecule: Cc1coc2c1C(=O)C(=O)c1c-2ccc2c(C)cccc12
Completion: 0.000756

* * *

EXPERIMENTAL SETUP: in acetone, 303.15 K
MEASURED METRIC: solubility (mole fraction)
The answer should be written as a number, with no unit following it.

Prompt: Provide solubility (mole fraction) value for the following compound: Cc1coc2c1C(=O)C(=O)c1c-2ccc2c(C)cccc12
Completion: 0.00221

* * *

EXPERIMENTAL SETUP: in ethanol, 288.15 K
MEASURED METRIC: solubility (mole fraction)

Prompt: Provide solubility (mole fraction) value for the following compound: Cc1coc2c1C(=O)C(=O)c1c-2ccc2c(C)cccc12
Completion: 9.82e-05

* * *

EXPERIMENTAL SETUP: in methanol, 318.15 K
MEASURED METRIC: solubility (mole fraction)
The answer should be written as a number, with no unit following it.

Prompt: Provide solubility (mole fraction) value for the following molecule: Cc1coc2c1C(=O)C(=O)c1c-2ccc2c(C)cccc12
Completion: 0.000154

* * *

EXPERIMENTAL SETUP: in ethanol, 313.15 K
MEASURED METRIC: solubility (mole fraction)
The answer should be written as a number, with no unit following it.

Prompt: Provide solubility (mole fraction) value for the following molecule: Cc1coc2c1C(=O)C(=O)c1c-2ccc2c(C)cccc12
Completion: 0.000233

* * *

EXPERIMENTAL SETUP: in ethanol, 298.15 K
MEASURED METRIC: solubility (mole fraction)
The answer should be written as a number, with no unit following it.

Prompt: Provide solubility (mole fraction) value for the following molecule: Cc1coc2c1C(=O)C(=O)c1c-2ccc2c(C)cccc12
Completion: 0.000144

* * *

EXPERIMENTAL SETUP: in n-propanol, 303.15 K
MEASURED METRIC: solubility (mole fraction)

Prompt: Provide solubility (mole fraction) value for the following molecule: Cc1coc2c1C(=O)C(=O)c1c-2ccc2c(C)cccc12
Completion: 0.000866

* * *

EXPERIMENTAL SETUP: in n-butanol, 323.15 K
MEASURED METRIC: solubility (mole fraction)

Prompt: Provide solubility (mole fraction) value for the following compound: Cc1coc2c1C(=O)C(=O)c1c-2ccc2c(C)cccc12
Completion: 0.00178

* * *

EXPERIMENTAL SETUP: in acetone, 313.15 K
MEASURED METRIC: solubility (mole fraction)
The answer should be written as a number, with no unit following it.

Prompt: Provide solubility (mole fraction) value for the following compound: Cc1coc2c1C(=O)C(=O)c1c-2ccc2c(C)cccc12
Completion: 0.00287

* * *

EXPERIMENTAL SETUP: in ethylene glycol, 293.15 K
MEASURED METRIC: solubility (mole fraction)

Prompt: Provide solubility (mole fraction) value for the following molecule: Cc1coc2c1C(=O)C(=O)c1c-2ccc2c(C)cccc12
Completion: 0.000132

The measured values listed here are drawn from BigSolDB 2.1.
